System: 60 different human tumor cell lines
Assay: NCI Development Therapeutics Program 60 cell line screen, one dose
Type: cell-based
Conditions: Melanoma, UACC-62
endpoint label: Growth Percent (%)
# value in %; strip the unit string

get_value(item= C[C@]12CCc3sc(Nc4cccc(O)c4)nc3C1=CC[C@@H]1[C@@H]2CC[C@]2(C)C(=O)CC[C@@H]12 , readout=Growth Percent) returns 28.83

The compound listed as CN(c1ccccc1)c1nc2c(s1)CC[C@@]1(C)C2=CC[C@@H]2[C@@H]1CC[C@]1(C)C(=O)CC[C@@H]21 shows Growth Percent equal to 38.23

Recorded Growth Percent (compound C[C@]12CCc3sc(NCCc4ccccc4)nc3C1=CC[C@@H]1[C@@H]2CC[C@]2(C)C(=O)CC[C@@H]12 ): 75.59

The compound listed as C[C@]12CC[C@H]3[C@@H](CC=C4c5sc(-c6ccc(O)cc6)nc5CC[C@@]43C)[C@@H]1CC[C@@H]2O has a reported Growth Percent of 28.69

# Growth Percent of C[C@]12CCc3nc(N)sc3C1=CC[C@@H]1[C@@H]2CC[C@]2(C)C(=NNC(N)=O)CC[C@@H]12 = 38.92

// C[C@]12CCc3sc(Nc4ccc(F)cc4F)nc3C1=CC[C@@H]1[C@@H]2CC[C@]2(C)C(=O)CC[C@@H]12 : Growth Percent value = 67.65

The compound listed as C[C@]12CCc3sc(Nc4ccc(OC(F)(F)F)cc4)nc3C1=CC[C@@H]1[C@@H]2CC[C@]2(C)C(=O)CC[C@@H]12 has a reported Growth Percent of 63.42

Just so you know, measured Growth Percent for C[C@]12CCc3nc(Nc4ccc(O)cc4)sc3C1=CC[C@@H]1[C@@H]2CC[C@]2(C)C(=O)CC[C@@H]12 came out at 55.82

Reported Growth Percent ( C[C@]12CC[C@H]3[C@@H](CC=C4c5sc(Nc6ccccc6)nc5CC[C@@]43C)[C@@H]1CC[C@@H]2O ) = 39.84

###

Test system: 60 different human tumor cell lines
Assay: cells
Settings: K562
endpoint label: GI50
# do not omit the unit; it follows the number

// field: GI50; key: C[C@]12CC[C@H]3[C@@H](CC=C4c5sc(-c6ccc(O)cc6)nc5CC[C@@]43C)[C@@H]1CC[C@@H]2O ; value = 3480 nM

GI50 for C[C@]12CCc3sc(NCCc4ccccc4)nc3C1=CC[C@@H]1[C@@H]2CC[C@]2(C)C(=O)CC[C@@H]12 is 2890 nM

Data point: C[C@]12CCc3sc(Nc4ccc(F)cc4F)nc3C1=CC[C@@H]1[C@@H]2CC[C@]2(C)C(=O)CC[C@@H]12 ; GI50 = 2430 nM

For C[C@]12CCc3sc(Nc4ccc(OC(F)(F)F)cc4)nc3C1=CC[C@@H]1[C@@H]2CC[C@]2(C)C(=O)CC[C@@H]12 the compound record lists GI50 as 1870 nM

Entry C[C@]12CC[C@H]3[C@@H](CC=C4c5sc(Nc6ccccc6)nc5CC[C@@]43C)[C@@H]1CC[C@@H]2O — recorded GI50 = 2450 nM

Noted for C[C@]12CCc3sc(Nc4cccc(O)c4)nc3C1=CC[C@@H]1[C@@H]2CC[C@]2(C)C(=O)CC[C@@H]12 : its GI50 reads 2790 nM

###

System: 60 different human tumor cell lines
Details: SK-OV-3 (Ovarian Cancer), five dose
Give measured TGI for each item. Keep answers brief.

Reported TGI of C[C@]12CC[C@H]3[C@@H](CC=C4c5sc(Nc6ccccc6)nc5CC[C@@]43C)[C@@H]1CC[C@@H]2O : 1.79E−5

// TGI lookup, molecule = C[C@]12CCc3nc(Nc4ccc(O)cc4)sc3C1=CC[C@@H]1[C@@H]2CC[C@]2(C)C(=O)CC[C@@H]12 , result: >1.00E−4

Entry C[C@]12CCc3sc(NCCc4ccccc4)nc3C1=CC[C@@H]1[C@@H]2CC[C@]2(C)C(=O)CC[C@@H]12 — recorded TGI = >1.00E−4

###

Kindly supply the reported GI50 values for the records listed here.
System: 60 different human tumor cell lines
Test: cells
Conditions: CAKI-1
Kindly provide the numeric value in µM only, without the unit symbol.

GI50 measured on C[C@]12CCc3sc(NCCc4ccccc4)nc3C1=CC[C@@H]1[C@@H]2CC[C@]2(C)C(=O)CC[C@@H]12 = 3.13

GI50 for C[C@]12CC[C@H]3[C@@H](CC=C4c5sc(Nc6ccccc6)nc5CC[C@@]43C)[C@@H]1CC[C@@H]2O is 2.32

Value of GI50 reported for the compound C[C@]12CC[C@H]3[C@@H](CC=C4c5sc(-c6ccc(O)cc6)nc5CC[C@@]43C)[C@@H]1CC[C@@H]2O is 4.12

The reported value for C[C@]12CCc3sc(Nc4cccc(O)c4)nc3C1=CC[C@@H]1[C@@H]2CC[C@]2(C)C(=O)CC[C@@H]12 in terms of GI50 is 13

###

Exercise: state measured CC50 for each of the compounds provided.
Test system: gliosarcoma (SF-539)
Assay: NCI 60 five dose screen
Settings: Homo sapiens, SF-539, read-out: LC50
# value in µM; strip the unit string

Known value: gliosarcoma (SF-539) CC50 of the compound C[C@]12CC[C@H]3[C@@H](CC=C4c5sc(-c6ccc(O)cc6)nc5CC[C@@]43C)[C@@H]1CC[C@@H]2O [III.5] equals 91.7

Short answer on gliosarcoma (SF-539) for C[C@]12CC[C@H]3[C@@H](CC=C4c5sc(Nc6ccccc6)nc5CC[C@@]43C)[C@@H]1CC[C@@H]2O [IIIa.10] , CC50: 5.74

Readout CC50 for C[C@]12CCc3sc(NCCc4ccccc4)nc3C1=CC[C@@H]1[C@@H]2CC[C@]2(C)C(=O)CC[C@@H]12 [IIa.2] , test system gliosarcoma (SF-539), was 7.75

Value sought: CC50, system gliosarcoma (SF-539), item C[C@]12CCc3sc(Nc4ccc(OC(F)(F)F)cc4)nc3C1=CC[C@@H]1[C@@H]2CC[C@]2(C)C(=O)CC[C@@H]12 [IIa.19] . Result: 7.07

Record C[C@]12CCc3sc(Nc4cccc(O)c4)nc3C1=CC[C@@H]1[C@@H]2CC[C@]2(C)C(=O)CC[C@@H]12 [IIa.17] has gliosarcoma (SF-539) CC50 equal to 79.9

###

Tested on: 60 different human tumor cell lines
Conditions: read-out: LC50; DU-145 (Prostate Cancer), five dose
endpoint label: CC50 (µM)
The figure you give is taken to be in µM; do not add the unit.

What the record says about C[C@]12CCc3nc(N)sc3C1=CC[C@@H]1[C@@H]2CC[C@]2(C)C(=NNC(N)=O)CC[C@@H]12 : CC50 is 6.66

###

System: 60 different human tumor cell lines
Assay: cells
Conditions: MOLT-4
For each entry below, report its GI50 value.
Reply with just the number (in µM).

Memo: C[C@]12CCc3sc(Nc4cccc(O)c4)nc3C1=CC[C@@H]1[C@@H]2CC[C@]2(C)C(=O)CC[C@@H]12 , reported GI50: 2.84

Per the records, this compound ( C[C@]12CC[C@H]3[C@@H](CC=C4c5sc(-c6ccc(O)cc6)nc5CC[C@@]43C)[C@@H]1CC[C@@H]2O ) has GI50 equal to 1.93

Sure, the documented GI50 for C[C@]12CCc3sc(Nc4ccc(OC(F)(F)F)cc4)nc3C1=CC[C@@H]1[C@@H]2CC[C@]2(C)C(=O)CC[C@@H]12 is 1.53

GI50 measured on C[C@]12CC[C@H]3[C@@H](CC=C4c5sc(Nc6ccccc6)nc5CC[C@@]43C)[C@@H]1CC[C@@H]2O = 1.87

Lab book: GI50 of C[C@]12CCc3sc(Nc4ccc(F)cc4F)nc3C1=CC[C@@H]1[C@@H]2CC[C@]2(C)C(=O)CC[C@@H]12 noted as 2.44

Reported GI50 for C[C@]12CCc3sc(NCCc4ccccc4)nc3C1=CC[C@@H]1[C@@H]2CC[C@]2(C)C(=O)CC[C@@H]12 was 2.58

###

Tested on: 60 different human tumor cell lines
Assay: cells
Conditions: U-251, read-out: LC50
endpoint label: CC50 (µM)
Could you give me the number in µM? Just the number is fine.

Note to self: CC50 recorded for C[C@]12CCc3sc(Nc4ccc(OC(F)(F)F)cc4)nc3C1=CC[C@@H]1[C@@H]2CC[C@]2(C)C(=O)CC[C@@H]12 was 9.78

// CC50 value for C[C@]12CCc3sc(Nc4cccc(O)c4)nc3C1=CC[C@@H]1[C@@H]2CC[C@]2(C)C(=O)CC[C@@H]12 : 58.6

// recorded CC50 for C[C@]12CC[C@H]3[C@@H](CC=C4c5sc(Nc6ccccc6)nc5CC[C@@]43C)[C@@H]1CC[C@@H]2O : 5.7
